system: HCI03 (cells of an ER-positive luminal breast cancer xenograft); experiment: cell viability (% of vehicle); higher = less cytotoxic; settings: 10 µM; 72 h;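 further: PDX cells carrying CMV promoter-driven luciferase, viability read as total photon flux per second by IVIS imaging following D-luciferin, vehicle control 0.1% DMSO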
measure: cell viability
Please respond with just the number, no unit label.

As a guide, the following entries are already answered.
molecule | measure | measurement
O=c1cc[nH]c(=S)[nH]1 [2-Thiouracil] | cell viability | 139
CNCCCC12CCC(c3ccccc31)c1ccccc12.Cl [Maprotiline HCl] | cell viability | 75.5
CC(=O)O[C@@]12CO[C@@H]1C[C@H](O)[C@@]1(C)C(=O)[C@H](O)C3=C(C)[C@@H](OC(=O)[C@H](O)[C@@H](NC(=O)OC(C)(C)C)c4ccccc4)C[C@@](O)([C@@H](OC(=O)c4ccccc4)[C@H]21)C3(C)C [Docetaxel] | cell viability | 106
CC(S)C(=O)NCC(=O)O (configuration not stated) [Tiopronin (Thiola)] | cell viability | 109
O=c1[nH]c(=O)n(C2CC(O)C(CO)O2)cc1C(F)(F)F (configuration not stated) [Triflurdine (Viroptic)] | cell viability | 132

Consider C=CC(=O)Nc1cc(Nc2nccc(-c3cn(C)c4ccccc34)n2)c(OC)cc1N(C)CCN(C)C . Its measured cell viability is 39.9

Consider Cl.O=C(c1ccc(OCCN2CCCCC2)cc1)c1c(-c2ccc(O)cc2)sc2cc(O)ccc12 [Raloxifene HCl] . Its measured cell viability is 71.2

Consider CC(C)n1c(C=CC(O)CC(O)CC(=O)O)c(-c2ccc(F)cc2)c2ccccc21 (configuration not stated) [Fluvastatin] . Its measured cell viability is 130

Consider CCC1OC(=O)C(C)C(OC2CC(C)(OC)C(O)C(C)O2)C(C)C(OC2OC(C)CC(N(C)C)C2O)C(C)(O)CC(C)CN(C)C(C)C(O)C1(C)O (configuration not stated) [Azithromycin] . Its measured cell viability is 137

Consider O=c1oc2c(O)c(O)cc3c(=O)oc4c(O)c(O)cc1c4c23 [Ellagic acid] . Its measured cell viability is 144

Consider CCCc1nc2c(C)cc(-c3nc4ccccc4n3C)cc2n1Cc1ccc(-c2ccccc2C(=O)O)cc1 [Telmisattan] . Its measured cell viability is 111

Consider CC(C)(C)NC(=O)C1CC2CCCCC2CN1CC(O)C(Cc1ccccc1)NC(=O)C(CC(N)=O)NC(=O)c1ccc2ccccc2n1.CS(=O)(=O)O (configuration not stated) [Saquinavir mesylate] . Its measured cell viability is 104

Consider CCOC(=O)C(CCc1ccccc1)NC1CCc2ccccc2N(CC(=O)O)C1=O.Cl (configuration not stated) [Benazepril HCl] . Its measured cell viability is 159

Consider CC(CCC(=O)O)C1CCC2C3C(O)CC4CC(O)CCC4(C)C3CCC12C (configuration not stated) [Chenodeoxycholic Acid] . Its measured cell viability is 104

Consider CCC1OC(=O)CC(O)C(C)C(OC2OC(C)C(OC3CC(C)(O)C(O)C(C)O3)C(N(C)C)C2O)C(CC=O)CC(C)C(=O)C=CC(C)=CC1COC1OC(C)C(O)C(OC)C1OC.O=C(O)C(O)C(O)C(=O)O (configuration not stated) [Tylosin tartrate] . Its measured cell viability is 165

Consider COc1cc2nccc(Oc3ccc(NC(=O)NC4CC4)c(Cl)c3)c2cc1C(N)=O [Lenvatinib (E7080)] . Its measured cell viability is 70.5

Consider CN1CCC(=C2c3ccccc3CC(=O)c3sccc32)CC1.O=C(O)C=CC(=O)O [Ketotifen Fumarate] . Its measured cell viability is 125

Consider CN1C2=CC(=O)C(=NNC(N)=O)C=C2CC1S(=O)(=O)[O-].[Na+] (configuration not stated) [Carbazochrome sodium sulfonate (AC-17)] . Its measured cell viability is 129

Consider CCCC1CC(C(=O)NC(C(C)Cl)C2OC(SC)C(OP(=O)(O)O)C(O)C2O)N(C)C1 (configuration not stated) [Clindamycin Phosphate] . Its measured cell viability is 112

Consider Cc1cnc(NC(=O)C2=C(O)c3ccccc3S(=O)(=O)N2C)s1 [Meloxicam (Mobic)] . Its measured cell viability is 125

Consider O=C1NC([O-])=NC1(c1ccccc1)c1ccccc1.[Na+] [Phenytoin sodium] . Its measured cell viability is 142

Consider CCCCCCCN(CC)CCCC(O)c1ccc(NS(C)(=O)=O)cc1.CCCCCCCN(CC)CCCC(O)c1ccc(NS(C)(=O)=O)cc1.O=C(O)C=CC(=O)O (configuration not stated) [Ibutilide Fumarate] . Its measured cell viability is 121

Consider COc1ccc2cc1Oc1ccc(cc1)CC1c3c(cc4c(c3Oc3cc5c(cc3OC)CCN(C)C5C2)OCO4)CCN1C (configuration not stated) [Cepharanthine] . Its measured cell viability is 64.3

###

system: HCI09 (cells of a triple-negative luminal androgen receptor type breast cancer xenograft); assay: cell viability (% of vehicle); higher = less cytotoxic; conditions: 10 µM; 72 h
Threshold 90: cell viability strictly smaller gives MET, otherwise NOT MET.

Past entries and their recorded results:
molecule | tgt | discrete.label
CCCS(=O)c1ccc2nc(NC(=O)OC)[nH]c2c1 (stereo unspecified) [Albendazole Oxide] | HCI09 | NOT MET
CCC(CO)Nc1nc(NCc2ccccc2)c2ncn(C(C)C)c2n1 (stereo unspecified) [Roscovitine (Seliciclib,CYC202)] | HCI09 | MET
CCN(CCO)CCCC(C)Nc1ccnc2cc(Cl)ccc12.O=S(=O)(O)O (stereo unspecified) [Hydroxychloroquine Sulfate] | HCI09 | MET
CC[C@@]1(O)C(=O)OCc2c1cc1n(c2=O)Cc2cc3c(CN(C)C)c(O)ccc3nc2-1.Cl [Topotecan HCl] | HCI09 | MET

Below: the item to evaluate.
Determine if COc1ccc(C2CNC(=O)C2)cc1OC1CCCC1 (stereo not drawn) [S- (+)-Rolipram] shows cell viability strictly lower than 90. NOT MET

###

tested on: HCI11 (cells of an ER-positive luminal breast cancer xenograft); test: cell viability (% of vehicle); higher = less cytotoxic; settings: 10 µM; 72 h
Here, each record is paired with measured cell viability data.
Please respond with just the number, no unit label.

compound | cell viability
CC1(C)O[C@@H]2C[C@H]3[C@@H]4CCC5=CC(=O)CC[C@]5(C)[C@@]4(F)[C@@H](O)C[C@]3(C)[C@]2(C(=O)CCl)O1 [Halcinonide] | 133

Consider CC(C(=O)O)c1ccc2c(c1)CC(=O)c1ccccc1S2 (centres undefined) . Its measured cell viability is 103

Consider Cc1oncc1C(=O)Nc1ccc(C(F)(F)F)cc1 [Leflunomide] . Its measured cell viability is 194

Consider Clc1ccc(CSC(Cn2ccnc2)c2ccc(Cl)cc2Cl)cc1.O=[N+]([O-])O (centres undefined) [Sulconazole Nitrate] . Its measured cell viability is 78.3

###

tested on: HCI16 (cells of a triple-negative basal-like breast cancer xenograft); test: cell viability (% of vehicle); higher = less cytotoxic; conditions: 10 µM; 72 h
measure: cell viability
Please respond with just the number, no unit label.

As a guide, the following entries are already answered.
compound | cell viability
OCCN1CC(O)C(O)C(O)C1CO (stereo not drawn) [Miglitol] | 116
CC(C)C1=CC(=C2NNC(=O)N2c2ccc3c(ccn3C)c2)C(=O)C=C1O [Ganetespib (STA-9090)] | 68.2
Nc1ccn(C2CCC(CO)O2)c(=O)n1 (stereo not drawn) [Zalcitabine] | 128
Cc1ccccc1N1C(=O)c2cc(S(N)(=O)=O)c(Cl)cc2NC1C (stereo not drawn) [Metolazone] | 198

Consider CN(C)C(=O)c1cc2cnc(Nc3ccc(N4CCNCC4)cn3)nc2n1C1CCCC1 . Its measured cell viability is 91.7

Consider COC(=O)C1C2CC3c4[nH]c5cc(OC)ccc5c4CCN3CC2CC(OC(=O)c2cc(OC)c(OC)c(OC)c2)C1OC (stereo not drawn) [Reserpine] . Its measured cell viability is 132

Consider CCN(CC)CCNC(=O)c1c(C)[nH]c(C=C2C(=O)Nc3ccc(F)cc32)c1C.O=C(O)CC(O)C(=O)O [Sunitinib malate] . Its measured cell viability is 128

Consider CCOC(=O)C(CCc1ccccc1)NC(C)C(=O)N1C(C(=O)O)CC2CCCC21 (stereo not drawn) [Ramipril] . Its measured cell viability is 106

###

Here, each record is paired with measured cell viability data.
system: HCI03; experiment: cell viability (% of vehicle); higher = less cytotoxic; settings: 10 µM; 72 h
Please respond with just the number, no unit label.

molecule | tgt | cell viability
CC(C)NCC(O)c1ccc(NS(C)(=O)=O)cc1.Cl (centres undefined) [Sotalol hydrochloride] | HCI03 | 150

Consider CCCCC(=O)OC1CCC2C3CCc4cc(O)ccc4C3CCC12C (centres undefined) [Estradiol valerate] . Its measured cell viability is 122

Consider CC1CCc2cc(F)cc3c(=O)c(C(=O)O)cn1c23 (centres undefined) . Its measured cell viability is 156

Consider CC1OC(OCC2OC(Oc3c(-c4ccc(O)c(O)c4)oc4cc(O)cc(O)c4c3=O)C(O)C(O)C2O)C(O)C(O)C1O (centres undefined) . Its measured cell viability is 128

###

test system: HCI01 (cells of a triple-negative basal-like breast cancer xenograft); experiment: cell viability (% of vehicle); higher = less cytotoxic; details: 10 µM; 72 h
Threshold 100: cell viability strictly smaller gives Met, otherwise Not met.

Past entries and their recorded results:
compound | discrete.label
CC#CCn1c(N2CCCC(N)C2)nc2c1c(=O)n(Cc1nc(C)c3ccccc3n1)c(=O)n2C (configuration not stated) [Linagliptin (BI-1356)] | Not met
COC(=O)N=NC=C1C=[N+]([O-])c2ccccc2N1O [Carbadox] | Not met
CC(C)Cn1cnc2c(N)nc3ccccc3c21 [Imiquimod] | Met
Cc1nc(Nc2ncc(C(=O)Nc3c(C)cccc3Cl)s2)cc(N2CCN(CCO)CC2)n1 | Met
CC(C)(C)c1cc(C(C)(C)C)c(NC(=O)c2c[nH]c3ccccc3c2=O)cc1O [Ivacaftor (VX-770)] | Met

Determine if O=c1oc2cc(O)ccc2s1 [Tioxolone] shows cell viability strictly lower than 100. Not met

Determine if Clc1ccc(C(Cn2ccnc2)OCc2ccsc2Cl)c(Cl)c1 (configuration not stated) [Tioconazole] shows cell viability strictly lower than 100. Not met

Determine if C#Cc1cccc(Nc2ncnc3cc(OCCOC)c(OCCOC)cc23)c1 [Erlotinib] shows cell viability strictly lower than 100. Met

Determine if OCC1OC(Oc2cc(O)cc(C=Cc3ccc(O)cc3)c2)C(O)C(O)C1O (configuration not stated) [Polydatin] shows cell viability strictly lower than 100. Not met

Determine if Cl.OC(CNCC(O)C1CCc2cc(F)ccc2O1)C1CCc2cc(F)ccc2O1 (configuration not stated) [Nebivolol] shows cell viability strictly lower than 100. Met

Determine if CN1CCC(=C2c3ccccc3C=Cc3ccccc32)CC1.Cl [Cyproheptadine hydrochloride] shows cell viability strictly lower than 100. Met

Determine if CC(C)NCC(O)c1ccc(NS(C)(=O)=O)cc1.Cl (configuration not stated) [Sotalol] shows cell viability strictly lower than 100. Not met

Determine if Clc1ccc(COC(Cn2ccnc2)c2ccc(Cl)cc2Cl)c(Cl)c1.O=[N+]([O-])O (configuration not stated) [Miconazole Nitrate] shows cell viability strictly lower than 100. Met

Determine if COc1cc(NC(C)CCCN)c2ncccc2c1.O=P(O)(O)O.O=P(O)(O)O (configuration not stated) [Primaquine Diphosphate] shows cell viability strictly lower than 100. Met

Determine if C[C@H]1O[C@@H](O[C@H]2[C@@H](O)C[C@H](O[C@H]3[C@@H](O)C[C@H](O[C@H]4CC[C@@]5(C)[C@H](CC[C@@H]6[C@@H]5C[C@@H](O)[C@]5(C)[C@@H](C7=CC(=O)OC7)CC[C@]65O)C4)O[C@@H]3C)O[C@@H]2C)C[C@H](O)[C@@H]1O [Digoxin] shows cell viability strictly lower than 100. Met

Determine if Cl.Clc1cccc(Cl)c1NC1=NCCN1 [Clonidine HCl] shows cell viability strictly lower than 100. Not met
